- Measurement target: T1, Human CD19-his protein (human, UniProt P15391 20-291)
- T1 construct: bought protein; also called human CD19 protein; recombinant human CD19-His; not shown: His tag
- T1 sequence (looked up): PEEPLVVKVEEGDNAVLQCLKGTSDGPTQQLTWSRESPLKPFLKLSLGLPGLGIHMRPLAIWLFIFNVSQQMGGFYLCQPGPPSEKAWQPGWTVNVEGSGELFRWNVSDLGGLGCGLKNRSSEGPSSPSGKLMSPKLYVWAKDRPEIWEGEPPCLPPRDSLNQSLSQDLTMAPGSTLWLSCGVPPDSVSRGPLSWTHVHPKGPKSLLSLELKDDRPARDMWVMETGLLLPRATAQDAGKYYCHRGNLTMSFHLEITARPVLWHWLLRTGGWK
- Assay comment: ELISA, antibody at 0.001 nM
Observation type: OD450
Please reply with the value in numeric form only.

Query: Identify the reported OD450 for the following entry. F5.11.2 (antibody, human IgG1, V domains shown, human-murine chimeric antibody, human IgG1) VH: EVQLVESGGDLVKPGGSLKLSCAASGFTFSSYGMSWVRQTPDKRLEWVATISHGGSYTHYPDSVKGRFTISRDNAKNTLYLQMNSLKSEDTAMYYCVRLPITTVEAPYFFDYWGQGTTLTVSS VL: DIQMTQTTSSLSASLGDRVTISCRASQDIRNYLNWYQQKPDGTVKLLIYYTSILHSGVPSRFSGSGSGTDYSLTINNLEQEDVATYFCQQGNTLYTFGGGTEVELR
Result: 0.07

Query: Tell me its OD450 given F3.133.14 (antibody, human IgG1, V domains shown, human-murine chimeric antibody, human IgG1) VH: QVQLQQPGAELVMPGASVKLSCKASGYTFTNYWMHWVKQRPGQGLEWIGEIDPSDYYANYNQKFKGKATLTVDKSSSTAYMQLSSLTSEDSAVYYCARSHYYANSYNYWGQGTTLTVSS VL: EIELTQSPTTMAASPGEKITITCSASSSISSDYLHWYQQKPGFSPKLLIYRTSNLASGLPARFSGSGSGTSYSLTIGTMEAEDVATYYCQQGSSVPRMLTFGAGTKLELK as the entry.
Result: 0.07

Query: Look up and report measured OD450 for this entry: F3.124.7 (antibody, human IgG1, V domains shown, human-murine chimeric antibody, human IgG1) VH: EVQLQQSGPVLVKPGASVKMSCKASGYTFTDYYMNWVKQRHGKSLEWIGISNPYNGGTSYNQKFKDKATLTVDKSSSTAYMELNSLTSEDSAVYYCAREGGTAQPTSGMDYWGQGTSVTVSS VL: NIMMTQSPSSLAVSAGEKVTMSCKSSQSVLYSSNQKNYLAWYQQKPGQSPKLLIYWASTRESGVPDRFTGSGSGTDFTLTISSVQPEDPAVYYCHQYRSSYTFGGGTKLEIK
Result: 0.18

Query: Name the recorded OD450 of the item F5.7.1 (antibody, human IgG1, V domains shown, human-murine chimeric antibody, human IgG1) VH: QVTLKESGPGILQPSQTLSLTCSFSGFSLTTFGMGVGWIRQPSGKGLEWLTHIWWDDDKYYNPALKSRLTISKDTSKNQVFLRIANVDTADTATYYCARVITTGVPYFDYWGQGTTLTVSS VL: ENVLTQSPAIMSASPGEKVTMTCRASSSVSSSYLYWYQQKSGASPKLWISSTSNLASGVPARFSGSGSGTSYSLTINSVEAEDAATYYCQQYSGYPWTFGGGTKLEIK in your answer.
Result: 0.08
